- study.system: β-glucosidase (almonds)
- method.description: β-glucosidase (almonds) inhibition assay, p-nitrophenyl glycopyranoside substrate
- Assay type: biochemical
- stated.conditions: 50 mM phosphate buffer pH 6.8, 37 °C; mean ± SD, three independent experiments
parameter.measured: pIC50
Give bare numbers, as −log10 of the molar value.

Consider the following illustrative entries.
[[record]]
mol_smiles = "OC[C@@H]1[C@@H](O)[C@H](O)[C@@H](O)CN1CCCCCCn1cc(-c2ccccc2)nn1"
parameter_measured = "pIC50"
value_reported = 3.89

[[record]]
mol_smiles = "CCCc1ccc(-c2cn(CCCCN3C[C@H](O)[C@@H](O)[C@H](O)[C@H]3CO)nn2)cc1"
parameter_measured = "pIC50"
value_reported = 3.13

[[record]]
mol_smiles = "CCCCCCc1ccc(-c2cn(CCCCN3C[C@H](O)[C@@H](O)[C@H](O)[C@H]3CO)nn2)cc1"
parameter_measured = "pIC50"
value_reported = 3.28

[[record]]
mol_smiles = "CCCCc1ccc(-c2cn(CCCCN3C[C@H](O)[C@@H](O)[C@H](O)[C@H]3CO)nn2)cc1"
parameter_measured = "pIC50"
value_reported = 3.11


Shifting focus to the compound that follows.
get_value(item= `CCCCCc1ccc(-c2cn(CCCCCCN3C[C@H](O)[C@@H](O)[C@H](O)[C@H]3CO)nn2)cc1` , readout=pIC50) returns 4.14

----------
- method.description: Cell proliferation / viability CCK-8 assay
- Assay type: cell-based
- stated.conditions: human, HL60 cells; HL60, 50 µM, 24 h, CCK-8
Please provide measured viability at 24 h, 50 µM for the entries that follow.
Numbers only, in %.

[[record]]
compound = "CCCCCc1ccc(-c2cn(CCCCCCN3C[C@H](O)[C@@H](O)[C@H](O)[C@H]3CO)nn2)cc1 [Compound 19]"
value_reported = 97


Shifting focus to the compound that follows.
get_value(item= CCCCCCc1ccc(-c2cn(CCCCCCN3C[C@H](O)[C@@H](O)[C@H](O)[C@H]3CO)nn2)cc1 [Compound 20] , readout=viability at 24 h, 50 µM) returns 20.9

----------
Please provide measured IC50 for the entries that follow.
- study.system: α-glucosidase (yeast) (Saccharomyces cerevisiae, UniProt P53341)
- Construct: purchased Sigma Chemical Co., St. Louis, MO, USA
- Sequence (P53341 whole entry): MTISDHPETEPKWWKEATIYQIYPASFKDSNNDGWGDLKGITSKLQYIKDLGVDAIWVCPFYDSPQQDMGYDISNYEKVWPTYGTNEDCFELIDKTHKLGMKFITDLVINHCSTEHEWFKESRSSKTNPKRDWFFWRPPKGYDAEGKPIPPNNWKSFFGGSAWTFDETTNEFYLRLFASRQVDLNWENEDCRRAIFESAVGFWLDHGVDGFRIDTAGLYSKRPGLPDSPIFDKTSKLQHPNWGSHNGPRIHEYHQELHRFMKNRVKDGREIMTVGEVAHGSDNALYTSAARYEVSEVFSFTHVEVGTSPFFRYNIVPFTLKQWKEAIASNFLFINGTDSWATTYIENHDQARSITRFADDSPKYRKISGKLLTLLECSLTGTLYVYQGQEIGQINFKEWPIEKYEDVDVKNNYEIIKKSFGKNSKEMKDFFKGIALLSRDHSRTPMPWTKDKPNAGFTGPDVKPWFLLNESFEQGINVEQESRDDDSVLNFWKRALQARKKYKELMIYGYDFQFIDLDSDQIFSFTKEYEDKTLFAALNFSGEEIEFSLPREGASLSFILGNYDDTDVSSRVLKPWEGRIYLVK
- method.description: α-glucosidase (yeast) inhibition assay, p-nitrophenyl glycopyranoside substrate
- Format: biochemical
- stated.conditions: 50 mM phosphate buffer pH 6.8, 37 °C; mean ± SD, three independent experiments
Put your answer as a value accompanied by its unit after it.

[[record]]
molecule = "CCCCCCc1ccc(-c2cn(CCCCN3C[C@H](O)[C@@H](O)[C@H](O)[C@H]3CO)nn2)cc1 [Compound 13]"
value_reported = "82 µM"

[[record]]
molecule = "CCCCc1ccc(-c2cn(CCCCN3C[C@H](O)[C@@H](O)[C@H](O)[C@H]3CO)nn2)cc1 [Compound 12]"
value_reported = "105 µM"

[[record]]
molecule = "CCCCCCc1ccc(-c2cn(CCCCCCN3C[C@H](O)[C@@H](O)[C@H](O)[C@H]3CO)nn2)cc1 [Compound 20]"
value_reported = "16 µM"


Shifting focus to the molecule that follows.
get_value(item= CCCc1ccc(-c2cn(CCCCN3C[C@H](O)[C@@H](O)[C@H](O)[C@H]3CO)nn2)cc1 [Compound 11] , readout=IC50) returns 171 µM

----------
Please provide measured pIC50 for the entries that follow.
- study.system: α-glucosidase (yeast) (Saccharomyces cerevisiae)
- Construct: purchased Sigma Chemical Co., St. Louis, MO, USA
- method.description: α-glucosidase (yeast) inhibition assay, p-nitrophenyl glycopyranoside substrate
- Format: biochemical
- stated.conditions: 50 mM phosphate buffer pH 6.8, 37 °C; mean ± SD, three independent experiments
Numbers only, as −log10 of the molar value.

[[record]]
mol_smiles = "CCc1ccc(-c2cn(CCCCCCN3C[C@H](O)[C@@H](O)[C@H](O)[C@H]3CO)nn2)cc1"
study_system = "α-glucosidase (yeast) (Saccharomyces cerevisiae)"
value_reported = 4.17

[[record]]
mol_smiles = "CCCCCc1ccc(-c2cn(CCCCCCN3C[C@H](O)[C@@H](O)[C@H](O)[C@H]3CO)nn2)cc1"
study_system = "α-glucosidase (yeast) (Saccharomyces cerevisiae)"
value_reported = 4.96

[[record]]
mol_smiles = "OC[C@@H]1[C@@H](O)[C@H](O)[C@@H](O)CN1CCCCCCn1cc(-c2ccccc2)nn1"
study_system = "α-glucosidase (yeast) (Saccharomyces cerevisiae)"
value_reported = 3.89


Required: pIC50, one value per molecule below.
1. CCCc1ccc(-c2cn(CCCCCCN3C[C@H](O)[C@@H](O)[C@H](O)[C@H]3CO)nn2)cc1
2. CCc1ccc(-c2cn(CCCCN3C[C@H](O)[C@@H](O)[C@H](O)[C@H]3CO)nn2)cc1

Response:
[4.85, 3.61]

get_value(item= `CCCCc1ccc(-c2cn(CCCCCCN3C[C@H](O)[C@@H](O)[C@H](O)[C@H]3CO)nn2)cc1` , readout=pIC50) returns 4.96

----------
Notes on Ki obtained with yeast α-glucosidase (Saccharomyces cerevisiae, UniProt P53341).
Sequence (P53341 whole entry): as above
Answers are plain numbers, in µM.

[[record]]
mol_smiles = "CCCCCc1ccc(-c2cn(CCCCCCN3C[C@H](O)[C@@H](O)[C@H](O)[C@H]3CO)nn2)cc1"
scale_unit = "µM"
value_reported = 3.7


Shifting focus to the molecule that follows.
get_value(item= `CCCCc1ccc(-c2cn(CCCCCCN3C[C@H](O)[C@@H](O)[C@H](O)[C@H]3CO)nn2)cc1` , readout=Ki) returns 3.8

----------
- study.system: β-glucosidase (almonds)
- method.description: β-glucosidase (almonds) inhibition assay, p-nitrophenyl glycopyranoside substrate
- Type: biochemical
- stated.conditions: 50 mM phosphate buffer pH 6.8, 37 °C; mean ± SD, three independent experiments
parameter.measured: IC50 (µM)
One number for each entry, in µM.

Consider the following illustrative entries.
[[record]]
mol_smiles = "CCCCCCc1ccc(-c2cn(CCCCCCN3C[C@H](O)[C@@H](O)[C@H](O)[C@H]3CO)nn2)cc1"
value_reported = 77

[[record]]
mol_smiles = "CCCc1ccc(-c2cn(CCCCCCN3C[C@H](O)[C@@H](O)[C@H](O)[C@H]3CO)nn2)cc1"
value_reported = 62

[[record]]
mol_smiles = "CCCCc1ccc(-c2cn(CCCCCCN3C[C@H](O)[C@@H](O)[C@H](O)[C@H]3CO)nn2)cc1"
value_reported = 69


get_value(item= `CCc1ccc(-c2cn(CCCCCCN3C[C@H](O)[C@@H](O)[C@H](O)[C@H]3CO)nn2)cc1` , readout=IC50) returns 65
